- Test system: OCI-AML3 (Acute Myeloid Leukemia);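 also: after 72 h of two-drug dosing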
- Assay Details: Bliss excess, mean over the matrix (fraction); higher = more synergy
Please respond with reported Bliss excess for every item in the list.
Give bare numbers.

// known answers, use as guide
# Compound, Measured Endpoint, Quantitative Result
rows = [
    ("C=CCn1c(=O)c2cnc(Nc3ccc(N4CCN(C)CC4)cc3)nc2n1-c1cccc(C(C)(C)O)n1 [AZD1775] + Nc1ccn([C@@H]2O[C@H](CO)[C@@H](O)C2(F)F)c(=O)n1 [Gemcitabine] (first compound max 1 µM, partner max 0.3 µM)", "Bliss excess", 0.0084),
    ("NC1(C(=O)N[C@@H](CCO)c2ccc(Cl)cc2)CCN(c2ncnc3[nH]ccc23)CC1 [Capivasertib] + Cn1cnc2c(F)c(Nc3ccc(Br)cc3Cl)c(C(=O)NOCCO)cc21 [Selumetinib] (first compound max 10 µM, 7x7, partner max 10 µM)", "Bliss excess", -0.0291),
]

# batch: return Bliss excess for each of the 2 compounds below
1. Cn1cnc2c(F)c(Nc3ccc(Br)cc3Cl)c(C(=O)NOCCO)cc21 [Selumetinib] + CC(C)n1c(=O)n(C)c2cnc3cc(F)c(-c4ccc(OCCCN5CCCCC5)nc4)cc3c21 [AZD1390] (first compound max 10 µM, 7x7, partner max 0.3 µM)
2. COc1cc2ncnc(Nc3ccc(F)c(Cl)c3)c2cc1OCCCN1CCOCC1 [Gefitinib] + CC(C)n1c(=O)n(C)c2cnc3cc(F)c(-c4ccc(OCCCN5CCCCC5)nc4)cc3c21 [AZD1390] (first compound max 10 µM, 7x7, partner max 0.3 µM)

Outgoing:
-0.0696
-0.0457
